Where do these numbers come from? They come from ChEMBL document CHEMBL1201862.

- System: HOP-18
- test_method_notes: NCI tumour cell line growth inhibition, 48 h
Active and inactive are the calls of the source. No stated cut-off is given here; in the data, active = GI50 up to about 1.1 µM and inactive = higher.
Outcomes you can answer with include only these: active, inactive

>>> print(df.to_string())
                                   molecule  system_under_test  class_label
0  CC(C)(C)N1CC1CNC(=O)C(=O)NCC1CN1C(C)(C)C (stereo not given)             HOP-18       active
1                       Oc1ccncc1-c1cnccc1O             HOP-18     inactive
2      O=C(/C=C/c1ccc(Cl)c(Cl)c1)c1ccccc1Cl             HOP-18     inactive
3  CCCCCCCCCCCCCCCCCC(=O)Nc1ccn(C2OC(CO)C(O)C2O)c(=O)n1 (stereo not given)             HOP-18     inactive
4  C/C(=C\Cc1cc(O)ccc1O)CCc1c(C)cc(O)c(C=O)c1C             HOP-18     inactive
5  O=C(Nc1cccc(Cc2cccc(NC(=O)c3ccccc3)c2)c1)c1ccccc1             HOP-18     inactive
6  CCN(CC)CCSc1c2ccccc2nc2cc(NCC(=O)Nc3ccccc3-c3ccccc3NC(=O)CNc3ccc4c(SCCN(CC)CC)c5ccccc5nc4c3)ccc12             HOP-18     inactive
7  O=C1NC2(CCCC2)C2CCCCC12O (stereo not given)             HOP-18     inactive

Which outcome was entered for the molecule `Cc1ccc(S(=O)(=O)N(/N=C(\N)Oc2ccc(Cl)cc2)C(=N)Oc2ccc(Cl)cc2)cc1` in this test? inactive

Which outcome was entered for the molecule O=S(=O)(O)C(O)/C=C/c1ccccc1 (stereo not given) in this test? inactive

====

- Tested on: OVCAR-5
- test_method_notes: NCI tumour cell line growth inhibition, 48 h
Activity calls are given as the source filed them. Rule as the data show it: active = GI50 up to about 1.1 µM and inactive = higher.
endpoint: GI50

Example cases with answers are listed next.
>>> df
                                   compound  endpoint               result
0  COc1c(Br)cc2c(c1OC)C(Br)CCC(Br)(Br)C2=O (stereo not given)      GI50   4.92 µM (inactive)
1  C=CCOC(=O)N1c2ccc(O)cc2[C@@]23O[C@@]24[C@@H]1C#C/C=C\C#C[C@]3(O)C(OC)(OC)C[C@@H]4C      GI50   75.9 µM (inactive)
2  Cc1ccc(Nc2nc(C)c(C(=O)CC(=O)C(=O)Nc3c(C)cccc3C(C)(C)C)s2)cc1      GI50  > 100 µM (inactive)
3      COc1ccc(NC(=S)c2ccc(CN3CCCCC3)s2)cc1      GI50   16.4 µM (inactive)

Okay, next one:
The measured GI50 that O=C1C(Cl)=C(Cl)C(Cl)(Cl)C(Cl)C1(Cl)Cl (stereo not given) showed for OVCAR-5 is 23.2 µM (inactive)

====

- Tested on: HT-29
- test_method_notes: NCI tumour cell line growth inhibition, 48 h
The source made the active and inactive calls. No stated cut-off is given here; in the data, active = GI50 up to about 1.1 µM and inactive = higher.
endpoint: GI50

Example cases with answers are listed next.
compound	GI50
O=C(O)c1ccccc1/C=C1\Cc2ccccc2C1=O	38.2 µM (inactive)
CC(CC[C@@]1(O)OC2C[C@H]3[C@@H]4CC[C@H]5CC(OC6OC(CO)C(OC7OC(CO)C(O)C(OC8OCC(O)C(O)C8O)C7OC7OC(CO)C(O)C(O)C7O)C(O)C6O)[C@H](O)CC5(C)[C@H]4CCC3(C)C2[C@@H]1C)COC1OC(CO)C(O)C(O)C1O (stereo not given in full)	11 µM (inactive)
Fc1cc(C2=C[C@H](c3ccc4c(c3)OCO4)NC(=S)N2)c(Cl)cc1Cl	27.9 µM (inactive)
CC(C)(C)CN1[C@@H]2CCCC[C@H]2N(CC(C)(C)C)P1(=O)C(O)/C=C/c1ccccc1 (stereo not given in full)	31.5 µM (inactive)

Okay, next one:
The measured GI50 that COC1C(N(C)C)=C(c2ccccc2)C(=O)N2CCc3ccccc3C12 (stereo not given) showed for HT-29 is > 100 µM (inactive)
